- measured-target: δ-opioid receptor (Homo sapiens)
- Construct: purchased Receptor Biology, Baltimore, Md; host or cells: CHO cells (membranes)
- protocol-details: Scintillation screening assay for δ-opioid receptor binding ([3H]bremazocine)
- cond: cloned human receptor in CHO cell membranes, [3H]bremazocine 2.4 nM, read-out: δ-Opioid Receptor Binding (% Inhibition), % I @ 25 μM
Give measured inhibition at 25 µM for each item. Keep answers brief.
Numbers only, in %.

Answered examples (5):
Quote inhibition at 25 µM with test system δ-opioid receptor (Homo sapiens) for CCN1CCN(C(=Nc2cccc(Cl)c2)c2ccc(C(=O)OC)cc2)CC1 [Compound 29] 97

Quote inhibition at 25 µM with test system δ-opioid receptor (Homo sapiens) for CCCN(CCC)C(=O)c1ccc(C(=Nc2cc(Cl)cc(Cl)c2)N2CCN(CC)CC2)cc1 [Compound 12] 98

Quote inhibition at 25 µM with test system δ-opioid receptor (Homo sapiens) for CCN1CCN(C(=Nc2cccc(OC)c2)c2ccc(C(=O)OC)cc2)CC1 [Compound 47] 91

Quote inhibition at 25 µM with test system δ-opioid receptor (Homo sapiens) for CCN1CCN(C(=Nc2cccc(Br)c2)c2ccc(C(=O)OC)cc2)CC1 [Compound 30] 99

Quote inhibition at 25 µM with test system δ-opioid receptor (Homo sapiens) for CCN1CCN(C(=Nc2ccccc2F)c2ccc(C(=O)N(CC)CC)cc2)CC1 [Compound 10] 102

Hey, can you go through the list below and give me inhibition at 25 µM for every item?
1. CCN1CCN(C(=Nc2cc(Cl)cc(Cl)c2)c2ccc(C(=O)N(CC)CC)cc2)CC1 [Compound 13]
2. CCN1CCN(C(=Nc2cccc(F)c2)c2ccc(C(=O)N(CC)CC)cc2)CC1 [Compound 9]
3. CCN1CCN(C(=Nc2ccccc2)c2ccc(C(=O)OC)cc2)CC1 [Compound 46]

100
97
94

###

Give measured inhibition at 25 µM for each item. Keep answers brief.
- measured-target: δ-opioid receptor (Homo sapiens, UniProt P41143)
- Construct: purchased Receptor Biology, Baltimore, Md; host or cells: CHO cells (membranes)
- Sequence (P41143 whole entry): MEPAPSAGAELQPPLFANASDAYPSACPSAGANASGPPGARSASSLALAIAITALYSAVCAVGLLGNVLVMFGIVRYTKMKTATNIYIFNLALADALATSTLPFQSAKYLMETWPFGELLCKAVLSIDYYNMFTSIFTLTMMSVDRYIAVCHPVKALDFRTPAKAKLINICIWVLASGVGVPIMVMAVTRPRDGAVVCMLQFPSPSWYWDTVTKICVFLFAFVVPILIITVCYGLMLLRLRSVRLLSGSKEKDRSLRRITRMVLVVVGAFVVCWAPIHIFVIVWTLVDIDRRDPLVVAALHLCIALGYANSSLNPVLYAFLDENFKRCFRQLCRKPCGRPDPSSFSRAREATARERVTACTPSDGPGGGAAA
- protocol-details: Scintillation screening assay for δ-opioid receptor binding ([3H]bremazocine)
- cond: cloned human receptor in CHO cell membranes, [3H]bremazocine 2.4 nM, read-out: δ-Opioid Receptor Binding (% Inhibition), % I @ 25 μM
Answers are plain numbers, in %.

Answered examples (5):
Quote inhibition at 25 µM with test system δ-opioid receptor (Homo sapiens, UniProt P41143) for CCN1CCN(C(=Nc2ccccc2OC)c2ccc(C(=O)OC)cc2)CC1 60

Quote inhibition at 25 µM with test system δ-opioid receptor (Homo sapiens, UniProt P41143) for CCN1CCN(C(=Nc2ccccc2Cl)c2ccc(C(=O)N(CC)CC)cc2)CC1 103

Quote inhibition at 25 µM with test system δ-opioid receptor (Homo sapiens, UniProt P41143) for CCCN1CCN(C(=Nc2cccc(Cl)c2)c2ccc(C(=O)N(CC)CC)cc2)CC1 101

Quote inhibition at 25 µM with test system δ-opioid receptor (Homo sapiens, UniProt P41143) for CCN1CCN(C(=Nc2ccccc2)c2ccc(C(=O)N(CC)CC)cc2)CC1 106

Quote inhibition at 25 µM with test system δ-opioid receptor (Homo sapiens, UniProt P41143) for CCCN1CCN(C(=Nc2ccccc2Cl)c2ccc(C(=O)OC)cc2)CC1 90

Hey, can you go through the list below and give me inhibition at 25 µM for every item?
1. CCCN(CCC)C(=O)c1ccc(C(=Nc2cccc(F)c2)N2CCN(CC)CC2)cc1
2. CCN1CCN(C(=Nc2cccc(F)c2)c2ccc(C(=O)OC)cc2)CC1
3. CCCN(CCC)C(=O)c1ccc(C(=Nc2ccccc2Cl)N2CCN(CC)CC2)cc1

[97, 97, 97]
